Experiment: Cmax in healthy human at 1000 mg, iv administered as 1 hr infusion every 8 hrs for 10 days measured on day 1
Type: ADME, organism-based
Set-up: dose 1000 mg, route intravenous
Assay context: in vivo
Readout kind: Cmax

# Structure, Assay result
measured = [
    ("Cn1c(N)c(NC(=O)NCCN)c[n+]1CC1=C(C(=O)O)N2C(=O)[C@@H](NC(=O)/C(=N\\OC(C)(C)C(=O)[O-])c3nsc(N)n3)[C@H]2SC1", "52.8 µg/mL"),
]

----------
Experiment: Volume of distribution at steady state in healthy human at 500 mg, iv administered as single dose as 1 hr iv infusion
Format: ADME, organism-based
Assay context: in vivo

# Compound, Vd
records = [
    ("Cn1c(N)c(NC(=O)NCCN)c[n+]1CC1=C(C(=O)O)N2C(=O)[C@@H](NC(=O)/C(=N\\OC(C)(C)C(=O)[O-])c3nsc(N)n3)[C@H]2SC1 [CEFTOLOZANE]", "14.8 L"),
]

----------
Experiment: AUC (0 to infinity) in healthy human at 1000 mg, iv administered as single dose as 1 hr iv infusion
Type: ADME, organism-based
Set-up: dose 1000 mg, route intravenous, time infinity
Assay context: plasma

# Molecule, AUC(0-inf), µg·h/mL
data = [
    ("Cn1c(N)c(NC(=O)NCCN)c[n+]1CC1=C(C(=O)O)N2C(=O)[C@@H](NC(=O)/C(=N\\OC(C)(C)C(=O)[O-])c3nsc(N)n3)[C@H]2SC1 [CEFTOLOZANE]", 152),
]

----------
Experiment: Renal clearance in healthy human at 1000 mg, iv administered as 1 hr infusion every 8 hrs for 10 days measured on day 1
Assay type: ADME, organism-based, Kidney
Assay context: in vivo, read-out: CL_renal

# Structure, CL renal [mL/min]
records = [
    ("Cn1c(N)c(NC(=O)NCCN)c[n+]1CC1=C(C(=O)O)N2C(=O)[C@@H](NC(=O)/C(=N\\OC(C)(C)C(=O)[O-])c3nsc(N)n3)[C@H]2SC1", 112),
]

----------
Experiment: Mean residence time in healthy human at 250 mg, iv administered as single dose as 1 hr iv infusion
Assay type: ADME, organism-based
Assay context: in vivo

# Structure, MRT, h
measured = [
    ("Cn1c(N)c(NC(=O)NCCN)c[n+]1CC1=C(C(=O)O)N2C(=O)[C@@H](NC(=O)/C(=N\\OC(C)(C)C(=O)[O-])c3nsc(N)n3)[C@H]2SC1", 2.09),
]

----------
Experiment: Drug recovery in urine of healthy human at 250 mg, iv administered as single dose as 1 hr iv infusion after 24 hrs
Type: ADME, organism-based
Assay context: read-out: Activity
Readout kind: dose excreted at 24 h (%)

# Structure, Assay result
records = [
    ("Cn1c(N)c(NC(=O)NCCN)c[n+]1CC1=C(C(=O)O)N2C(=O)[C@@H](NC(=O)/C(=N\\OC(C)(C)C(=O)[O-])c3nsc(N)n3)[C@H]2SC1", 97.1),
]

----------
Experiment: Drug recovery in urine of healthy human at 1500 mg, iv administered as 1 hr infusion every 12 hrs for 10 days measured on day 1
Format: ADME, organism-based
Assay context: read-out: Activity

# Molecule, dose excreted at 1 day [%]
measured = [
    ("Cn1c(N)c(NC(=O)NCCN)c[n+]1CC1=C(C(=O)O)N2C(=O)[C@@H](NC(=O)/C(=N\\OC(C)(C)C(=O)[O-])c3nsc(N)n3)[C@H]2SC1 [CEFTOLOZANE]", 104),
]

Attribution: ChEMBL document CHEMBL1275247
